# Tested on: 889142-216-R-J1-PDC complex spheroid viability
# Measurement Notes: Anticancer human tumor 889142-216-R-J1-PDC patient-derived bladder carcinoma cell line growth inhibition [POLQ]
# Condition Set: second compound 0.316 µM; first compound 0.316 µM; hits give low values
Each entry falls into one class according to its viability, T/C; the ranges are LOW = under 70%, MEDIUM = from 70% up to 90%, HIGH = 90% and over

{"columns": ["Compound", "Class Name"],
 "data": [
  ["CCc1cc2c(N3CCc4c(cc(Cn5ccnc5)cc4-c4cn(C)nc4C(F)(F)F)C3=O)cc(C)nc2c(OC)n1 + Cc1cccc(N(C)C(=O)C2C(O)CCN2c2nc(C)cc(C(F)(F)F)c2C#N)c1", "HIGH"],
  ["Nc1ccn(C2OC(CO)C(O)C2(F)F)c(=O)n1 (stereo unspecified) + Nc1ccc(C#CCN(C(=O)Cc2ncc(C(F)(F)F)cc2C(F)(F)F)c2ccc(F)cc2)nn1", "LOW"],
  ["O=C(Nc1ccc(O)c(NS(=O)(=O)c2ccc(F)cc2)c1)c1ccc(-c2ccccc2)cc1 + Cc1cccc(N(C)C(=O)C2C(O)CCN2c2nc(C)cc(C(F)(F)F)c2C#N)c1", "MEDIUM"],
  ["O=C(c1cc(Cc2n[nH]c(=O)c3ccccc23)ccc1F)N1CCN(C(=O)C2CC2)CC1 + Cc1cccc(N(C)C(=O)C2C(O)CCN2c2nc(C)cc(C(F)(F)F)c2C#N)c1", "HIGH"],
  ["COc1cc(C2c3cc4c(cc3C(OC3OC5COC(C)OC5C(O)C3O)C3COC(=O)C23)OCO4)cc(OC)c1O (stereo unspecified) + Cc1cccc(N(C)C(=O)C2C(O)CCN2c2nc(C)cc(C(F)(F)F)c2C#N)c1", "LOW"],
  ["C#Cc1c(F)ccc2cc(O)cc(-c3ncc4c(N5CC6CCC(C5)N6)nc(OCC56CCCN5CC(F)C6)nc4c3F)c12 (stereo unspecified) + Nc1ccc(C#CCN(C(=O)Cc2ncc(C(F)(F)F)cc2C(F)(F)F)c2ccc(F)cc2)nn1", "MEDIUM"],
  ["COc1cccc2c1C(=O)c1c(O)c3c(c(O)c1C2=O)CC(O)(C(=O)CO)CC3OC1CC(N)C(O)C(C)O1 (stereo unspecified) + COC1C(OC(N)=O)C(O)C(Oc2ccc3c(O)c(NC(=O)c4ccc(O)c(CC=C(C)C)c4)c(=O)oc3c2C)OC1(C)C", "LOW"],
  ["CNCc1ccc(-c2[nH]c3cc(F)cc4c3c2CCNC4=O)cc1 + Cc1cccc(N(C)C(=O)C2C(O)CCN2c2nc(C)cc(C(F)(F)F)c2C#N)c1", "HIGH"]
]}

---

# Test system: 889142-216-R-J1-PDC complex spheroid viability
# Measurement Notes: Anticancer human tumor 889142-216-R-J1-PDC cell line growth inhibition [POLQ];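 further: spheroids exposed to compounds for seven days; 100% = DMSO vehicle control viability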
# Condition Set: second compound 10 µM; first compound 0.316 µM; hits give low values
# Procedure: Multicellular complex tumor spheroid response to Polymerase (POL) inhibitors (novobiocin, ART-558, RP6685) in combination with a variety of drugs and investigational agents in selected tumor cell lines The POL inhibitors (novobiocin, ART-558, and RP6685) were evaluated both individually and in combination with standard of care and investigational anticancer small molecules within a complex spheroid model of solid tumors. . […]
Listing of recorded viability, T/C by entry.
Outcome Measure: viability, T/C (%)

{"columns": ["Molecule", "System Name", "Meas Value"],
 "data": [
  ["COc1cccc2c1C(=O)c1c(O)c3c(c(O)c1C2=O)CC(O)(C(=O)CO)CC3OC1CC(N)C(O)C(C)O1 (stereo not given) + COC1C(OC(N)=O)C(O)C(Oc2ccc3c(O)c(NC(=O)c4ccc(O)c(CC=C(C)C)c4)c(=O)oc3c2C)OC1(C)C", "889142-216-R-J1-PDC complex spheroid viability", 44.3],
  ["O=C(c1cc(Cc2n[nH]c(=O)c3ccccc23)ccc1F)N1CCN(C(=O)C2CC2)CC1 + COC1C(OC(N)=O)C(O)C(Oc2ccc3c(O)c(NC(=O)c4ccc(O)c(CC=C(C)C)c4)c(=O)oc3c2C)OC1(C)C", "889142-216-R-J1-PDC complex spheroid viability", 84.4],
  ["COc1cc2cc(C(=O)CCC(=O)O)sc2cc1OC + COC1C(OC(N)=O)C(O)C(Oc2ccc3c(O)c(NC(=O)c4ccc(O)c(CC=C(C)C)c4)c(=O)oc3c2C)OC1(C)C", "889142-216-R-J1-PDC complex spheroid viability", 111],
  ["CNCc1ccc(-c2[nH]c3cc(F)cc4c3c2CCNC4=O)cc1 + COC1C(OC(N)=O)C(O)C(Oc2ccc3c(O)c(NC(=O)c4ccc(O)c(CC=C(C)C)c4)c(=O)oc3c2C)OC1(C)C", "889142-216-R-J1-PDC complex spheroid viability", 88.5],
  ["O=C(Nc1ccc(O)c(NS(=O)(=O)c2ccc(F)cc2)c1)c1ccc(-c2ccccc2)cc1 + Nc1ccc(C#CCN(C(=O)Cc2ncc(C(F)(F)F)cc2C(F)(F)F)c2ccc(F)cc2)nn1", "889142-216-R-J1-PDC complex spheroid viability", 118],
  ["O=C(c1cc(Cc2n[nH]c(=O)c3ccccc23)ccc1F)N1CCN(C(=O)C2CC2)CC1 + Nc1ccc(C#CCN(C(=O)Cc2ncc(C(F)(F)F)cc2C(F)(F)F)c2ccc(F)cc2)nn1", "889142-216-R-J1-PDC complex spheroid viability", 97.5],
  ["CCc1cc2c(N3CCc4c(cc(Cn5ccnc5)cc4-c4cn(C)nc4C(F)(F)F)C3=O)ccnc2c(OC)n1 + Cc1cccc(N(C)C(=O)C2C(O)CCN2c2nc(C)cc(C(F)(F)F)c2C#N)c1", "889142-216-R-J1-PDC complex spheroid viability", 102],
  ["CC(C)n1c(=O)n(C)c2cnc3cc(F)c(-c4ccc(OCCCN5CCCCC5)nc4)cc3c21 + Nc1ccc(C#CCN(C(=O)Cc2ncc(C(F)(F)F)cc2C(F)(F)F)c2ccc(F)cc2)nn1", "889142-216-R-J1-PDC complex spheroid viability", 88.6],
  ["CC1COCCN1c1cc(C2(O)CC3CCC(C2)O3)c2cnn(-c3ccn[nH]3)c2n1 (stereo not given) + COC1C(OC(N)=O)C(O)C(Oc2ccc3c(O)c(NC(=O)c4ccc(O)c(CC=C(C)C)c4)c(=O)oc3c2C)OC1(C)C", "889142-216-R-J1-PDC complex spheroid viability", 39.2],
  ["COc1cccc(OCCCN)c1-c1cc(Nc2cnc(C#N)cn2)n[nH]1 + Cc1cccc(N(C)C(=O)C2C(O)CCN2c2nc(C)cc(C(F)(F)F)c2C#N)c1", "889142-216-R-J1-PDC complex spheroid viability", 42.7]
]}

---

# System: 889142-216-R-J1-PDC complex spheroid viability
# Measurement Notes: Anticancer human tumor 889142-216-R-J1-PDC cell line growth inhibition [POLQ];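 further: spheroids exposed to compounds for seven days; 100% = DMSO vehicle control viability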
# Condition Set: second compound 0.0316 µM; first compound 0.1 µM; hits give low values
Rule: viability, T/C below 90% gives yes (1), anything at or above gives no (0).

{"columns": ["Molecule", "System Name", "Class Name"],
 "data": [
  ["C#Cc1c(F)ccc2cc(O)cc(-c3ncc4c(N5CC6CCC(C5)N6)nc(OCC56CCCN5CC(F)C6)nc4c3F)c12 (stereo unspecified) + COC1C(OC(N)=O)C(O)C(Oc2ccc3c(O)c(NC(=O)c4ccc(O)c(CC=C(C)C)c4)c(=O)oc3c2C)OC1(C)C", "889142-216-R-J1-PDC complex spheroid viability", "no (0)"],
  ["COc1ccc([C@@H](O)c2cc(-c3ncnc4cc(N5CCOCC5)ccc34)c(F)cc2Cl)nn1 + Cc1cccc(N(C)C(=O)C2C(O)CCN2c2nc(C)cc(C(F)(F)F)c2C#N)c1", "889142-216-R-J1-PDC complex spheroid viability", "yes (1)"],
  ["COc1cc(C2c3cc4c(cc3C(OC3OC5COC(C)OC5C(O)C3O)C3COC(=O)C23)OCO4)cc(OC)c1O (stereo unspecified) + COC1C(OC(N)=O)C(O)C(Oc2ccc3c(O)c(NC(=O)c4ccc(O)c(CC=C(C)C)c4)c(=O)oc3c2C)OC1(C)C", "889142-216-R-J1-PDC complex spheroid viability", "yes (1)"],
  ["CC1COCCN1c1cc(C2(O)CC3CCC(C2)O3)c2cnn(-c3ccn[nH]3)c2n1 (stereo unspecified) + Nc1ccc(C#CCN(C(=O)Cc2ncc(C(F)(F)F)cc2C(F)(F)F)c2ccc(F)cc2)nn1", "889142-216-R-J1-PDC complex spheroid viability", "yes (1)"],
  ["CC(C)n1c(=O)n(C)c2cnc3cc(F)c(-c4ccc(OCCCN5CCCCC5)nc4)cc3c21 + Nc1ccc(C#CCN(C(=O)Cc2ncc(C(F)(F)F)cc2C(F)(F)F)c2ccc(F)cc2)nn1", "889142-216-R-J1-PDC complex spheroid viability", "no (0)"],
  ["CCc1cc2c(N3CCc4c(cc(Cn5ccnc5)cc4-c4cn(C)nc4C(F)(F)F)C3=O)ccnc2c(OC)n1 + COC1C(OC(N)=O)C(O)C(Oc2ccc3c(O)c(NC(=O)c4ccc(O)c(CC=C(C)C)c4)c(=O)oc3c2C)OC1(C)C", "889142-216-R-J1-PDC complex spheroid viability", "no (0)"],
  ["O=c1[nH]cc(F)c(=O)[nH]1 + COC1C(OC(N)=O)C(O)C(Oc2ccc3c(O)c(NC(=O)c4ccc(O)c(CC=C(C)C)c4)c(=O)oc3c2C)OC1(C)C", "889142-216-R-J1-PDC complex spheroid viability", "no (0)"],
  ["COc1cccc(OCCCN)c1-c1cc(Nc2cnc(C#N)cn2)n[nH]1 + COC1C(OC(N)=O)C(O)C(Oc2ccc3c(O)c(NC(=O)c4ccc(O)c(CC=C(C)C)c4)c(=O)oc3c2C)OC1(C)C", "889142-216-R-J1-PDC complex spheroid viability", "yes (1)"],
  ["CNCc1ccc(-c2[nH]c3cc(F)cc4c3c2CCNC4=O)cc1 + Nc1ccc(C#CCN(C(=O)Cc2ncc(C(F)(F)F)cc2C(F)(F)F)c2ccc(F)cc2)nn1", "889142-216-R-J1-PDC complex spheroid viability", "no (0)"],
  ["CC1COCCN1c1cc(-c2ccnn2C)c2ccnc(-c3ccn[nH]3)c2n1 (stereo unspecified) + Cc1cccc(N(C)C(=O)C2C(O)CCN2c2nc(C)cc(C(F)(F)F)c2C#N)c1", "889142-216-R-J1-PDC complex spheroid viability", "yes (1)"],
  ["O=C(Nc1ccc(O)c(NS(=O)(=O)c2ccc(F)cc2)c1)c1ccc(-c2ccccc2)cc1 + COC1C(OC(N)=O)C(O)C(Oc2ccc3c(O)c(NC(=O)c4ccc(O)c(CC=C(C)C)c4)c(=O)oc3c2C)OC1(C)C", "889142-216-R-J1-PDC complex spheroid viability", "no (0)"],
  ["CNCc1ccc(-c2[nH]c3cc(F)cc4c3c2CCNC4=O)cc1 + COC1C(OC(N)=O)C(O)C(Oc2ccc3c(O)c(NC(=O)c4ccc(O)c(CC=C(C)C)c4)c(=O)oc3c2C)OC1(C)C", "889142-216-R-J1-PDC complex spheroid viability", "no (0)"],
  ["COc1cccc2c1C(=O)c1c(O)c3c(c(O)c1C2=O)CC(O)(C(=O)CO)CC3OC1CC(N)C(O)C(C)O1 (stereo unspecified) + Nc1ccc(C#CCN(C(=O)Cc2ncc(C(F)(F)F)cc2C(F)(F)F)c2ccc(F)cc2)nn1", "889142-216-R-J1-PDC complex spheroid viability", "yes (1)"],
  ["CC1COCCN1c1cc(-c2ccnn2C)c2ccnc(-c3ccn[nH]3)c2n1 (stereo unspecified) + Nc1ccc(C#CCN(C(=O)Cc2ncc(C(F)(F)F)cc2C(F)(F)F)c2ccc(F)cc2)nn1", "889142-216-R-J1-PDC complex spheroid viability", "yes (1)"],
  ["COc1cccc(OCCCN)c1-c1cc(Nc2cnc(C#N)cn2)n[nH]1 + Nc1ccc(C#CCN(C(=O)Cc2ncc(C(F)(F)F)cc2C(F)(F)F)c2ccc(F)cc2)nn1", "889142-216-R-J1-PDC complex spheroid viability", "yes (1)"],
  ["CC1COCCN1c1cc(C2(S(C)(=N)=O)CC2)nc(-c2ccnc3[nH]ccc23)n1 (stereo unspecified) + Cc1cccc(N(C)C(=O)C2C(O)CCN2c2nc(C)cc(C(F)(F)F)c2C#N)c1", "889142-216-R-J1-PDC complex spheroid viability", "no (0)"],
  ["Cn1ncnc1[C@H]1c2n[nH]c(=O)c3cc(F)cc(c23)N[C@@H]1c1ccc(F)cc1 + COC1C(OC(N)=O)C(O)C(Oc2ccc3c(O)c(NC(=O)c4ccc(O)c(CC=C(C)C)c4)c(=O)oc3c2C)OC1(C)C", "889142-216-R-J1-PDC complex spheroid viability", "yes (1)"],
  ["CC1COCCN1c1cc(C2(O)CC3CCC(C2)O3)c2cnn(-c3ccn[nH]3)c2n1 (stereo unspecified) + Cc1cccc(N(C)C(=O)C2C(O)CCN2c2nc(C)cc(C(F)(F)F)c2C#N)c1", "889142-216-R-J1-PDC complex spheroid viability", "yes (1)"],
  ["O=c1[nH]cc(F)c(=O)[nH]1 + Cc1cccc(N(C)C(=O)C2C(O)CCN2c2nc(C)cc(C(F)(F)F)c2C#N)c1", "889142-216-R-J1-PDC complex spheroid viability", "yes (1)"],
  ["C#Cc1c(F)ccc2cc(O)cc(-c3ncc4c(N5CC6CCC(C5)N6)nc(OCC56CCCN5CC(F)C6)nc4c3F)c12 (stereo unspecified) + Nc1ccc(C#CCN(C(=O)Cc2ncc(C(F)(F)F)cc2C(F)(F)F)c2ccc(F)cc2)nn1", "889142-216-R-J1-PDC complex spheroid viability", "no (0)"],
  ["Cn1ncnc1[C@H]1c2n[nH]c(=O)c3cc(F)cc(c23)N[C@@H]1c1ccc(F)cc1 + Cc1cccc(N(C)C(=O)C2C(O)CCN2c2nc(C)cc(C(F)(F)F)c2C#N)c1", "889142-216-R-J1-PDC complex spheroid viability", "yes (1)"]
]}
